- Tested on: NCI-H226 lung
- experimental-protocol: NCI-60 one-dose screen, 48 h (100 = growth as untreated, 0 = no growth, -100 = all killed)
- experimental-conditions: 10 µM unless noted
Compounds without any hit were thinned out: in the full panel of roughly 83,000, 20% have a hit. The source made the active and inactive calls. Rule for the calls: active = growth percent below 10; inactive = the rest.
measured-quantity: growth

IN: For the compound Cc1ccc(S(=O)(=O)NC(=O)n2cc(-c3ccncc3)c(-c3ccc(Cl)c(O)c3)n2)cc1 , give its reported growth.
OUT: 98.6% (inactive)

IN: Query growth for CNc1ccc(Br)c2c1C(=O)c1ccccc1C2=O
OUT: 104% (inactive)

IN: State its growth: O=[N+]([O-])c1ccc(-c2cn(-c3ccccc3)c(-c3ccccc3)n2)cc1
OUT: 95.4% (inactive)

IN: Note down growth recorded for C=C[C@@H]1C[C@H](O)Cc2ccccc2N1
OUT: 111% (inactive)

IN: Give a short answer stating reported growth for O=C(O)C1CCCCN1c1nc(Cl)nc(Cl)n1 (stereo not given) .
OUT: 89.1% (inactive)

IN: Determine its reported growth: COc1cc(C2C3=C(COC3=O)Nc3cc4c(cc32)OCO4)cc2c1OCO2 (stereo not given)
OUT: 19.2% (inactive)

IN: Annotate the compound COc1cc(NCCCCCN)c2ncccc2c1 with its measured growth.
OUT: 112% (inactive)

IN: Give the reported value of growth for this record: O=C(Nc1ccc2c(c1)OCO2)C(=O)c1c[nH]c2cc(F)ccc12
OUT: 73% (inactive)

IN: Hello, please tell me recorded growth for this one: Oc1ccc(Cl)cc1-c1cc(-c2ccc(F)cc2)n[nH]1
OUT: 92.7% (inactive)

IN: Give growth for the following compound: O=C(NCCNc1nccc(-n2ccc3cccnc32)n1)c1ccc(C(F)(F)F)cc1
OUT: 97.7% (inactive)

IN: Answer with reported growth of CN1CCN(Cc2ccc(NC(=O)c3cncc(C#Cc4cnc(N)c5ccncc45)c3)cc2C(F)(F)F)CC1
OUT: -12.8% (active)

IN: Entry O=C(Nc1ccncc1)C(=O)c1cn(S(=O)(=O)c2ccccc2F)c2ccccc12 needs its growth filled in; supply it.
OUT: 56.8% (inactive)

IN: Find the measured growth of Clc1ccc2c(NC3CCC(NC4CCCCC4)CC3)ccnc2c1 (stereo not given) and report it.
OUT: 79.7% (inactive)

IN: Tell me growth reported for O=[N+]([O-])c1cccc(-c2nc3sccn3c2-c2ccnc(NCCCNS(=O)(=O)c3ccc(C(F)(F)F)cc3)n2)c1
OUT: 23.8% (inactive)

IN: Name the recorded growth of the item CCCCCCCCCCCCNC(=O)[C@H]1CSC(c2cc3ccccc3s2)N1 (stereo not given in full) in your answer.
OUT: 22.8% (inactive)

IN: Look up growth of COc1cc(-c2nn(-c3cccc(NC(=O)Nc4cc(C(F)(F)F)cc(C(F)(F)F)c4)c3)cc2-c2ccncc2)ccc1Cl and report it.
OUT: 8.68% (active)

IN: Please list growth recorded for the compound CCN(CC)CCC(CNc1ccnc2cc(Cl)ccc12)c1ccc(Cl)cc1 (stereo not given)
OUT: 14.4% (inactive)

IN: Kindly indicate its recorded growth. Item: COc1ccc(-c2nc3sc(-c4cc(OC)c(OC)c(OC)c4)nn3c2/C=C2/C(=O)Nc3ccc(F)cc32)cc1
OUT: 110% (inactive)

IN: Answer with reported growth of CCn1c2ccccc2c2cc(NC(=O)Nc3ccc([N+](=O)[O-])cc3C)ccc21
OUT: 74.9% (inactive)

IN: Quickly give me recorded growth for O=[N+]([O-])c1cnc(Sc2ccncn2)s1
OUT: 110% (inactive)

IN: Tell us which growth value is on record for Cc1nc2cncc(C#Cc3cncc(C(=O)Nc4ccc(CN5CCN(C)CC5)c(C(F)(F)F)c4)c3)c2nc1C
OUT: -28.7% (active)

IN: Supply reported growth belonging to this compound: COc1ccc(/C(C#N)=C/c2cc(OC)c(OC)c(OC)c2)cc1
OUT: 70.6% (inactive)

IN: Identify measured growth corresponding to COc1cc(-c2ncn(/C=C\C(=O)OC(C)C)n2)cc(C(F)(F)F)c1
OUT: -47% (active)

IN: Write down growth measured for item COc1ccc(-c2nc3sccn3c2/C=C/C(=O)c2cc(F)cc(F)c2)cc1
OUT: 80.5% (inactive)

IN: Provide measured growth value, entry: O=C1CS/C(=N\Nc2cc(=O)[nH]c3ccccc23)N1c1ccccc1
OUT: 95.6% (inactive)

IN: Please give the documented growth of O=C1/C(=C/c2ccc(Cl)cc2)CN(C(=O)CCN2CCC(=NO)CC2)C/C1=C\c1ccc(Cl)cc1
OUT: -20.5% (active)

IN: Provide growth value for the following compound: Cc1cc(C2=NNC(=O)Cc3cc4c(cc32)OCCO4)cc(C)c1N
OUT: 75.1% (inactive)

IN: Give recorded growth. COc1ccc(C2=C(c3cc(OC)c(OC)c(OC)c3)C(=O)CC2)cc1
OUT: 46.5% (inactive)

IN: Give the measured growth for Cc1csc(NC(c2ccc(Br)cc2)c2c(C)nc3ccccn23)n1 (stereo not given)
OUT: 81.6% (inactive)

IN: For O=C1NN(C(=O)c2ccc(Cl)cc2)C(c2ccccc2)=N/C1=C\c1cn(-c2ccccc2)nc1-c1ccccc1 , write its growth.
OUT: 106% (inactive)

IN: Quickly give me recorded growth for Cn1c2ccc(Br)cc2c2c3c(c4c5ccccc5[nH]c4c21)C(=O)N(O)C3=O
OUT: 24.1% (inactive)

IN: Tell us which growth value is on record for N#Cc1ccc(N2Cc3ccccc3OC3=C2C(=O)c2c(O)ccc(O)c2C3=O)cc1
OUT: 10.4% (inactive)

IN: State its growth for this compound: COc1ccc(-c2c(N)n[nH]c2-c2cc(OC)c(OC)c(OC)c2)cc1
OUT: 82.7% (inactive)

IN: Supply measured growth of CCOC(=O)CN1/C(=N/c2sc3c(c2C(=O)OCC)CCN(C(=O)OCC)C3)SC(=O)/C1=C\C(=O)OC in your reply.
OUT: 92.2% (inactive)

IN: Note down growth recorded for COc1ccc(S(=O)(=O)NCCCNc2nccc(-c3c(-c4cccc([N+](=O)[O-])c4)nc4sccn34)n2)cc1
OUT: 34.8% (inactive)

IN: Let me know recorded growth for COc1cc(-c2nn(-c3cccc(NC(=O)c4ccccc4)c3)cc2-c2ccncc2)ccc1Cl , thanks.
OUT: 39.1% (inactive)

IN: Given O=S(=O)(c1ccc(OCCO)cc1)c1ccc(OCCO)cc1 , respond with its growth.
OUT: 106% (inactive)

IN: Fill in reported growth for this entry: N=C(N)c1ccc(-c2ccc(-c3cncc4ccccc34)s2)cc1F
OUT: -64% (active)

IN: Kindly indicate its recorded growth. Item: COc1ccc(-n2c(-c3ccccc3)c(-c3ccccc3)c3c(SCC(=O)N/N=C/c4ccc(Cl)cc4)ncnc32)cc1
OUT: 76.6% (inactive)

IN: Quote growth reported for COC(=O)c1nc(-c2ccccc2)oc1S(=O)(=O)N1CCN(c2cccc(Cl)c2)CC1 please.
OUT: 93.9% (inactive)
